Reference for the values: PubChem BioAssay

Assay: growth inhibition of DIPG glioma cells, dose response, cell-based, SU-DIPG-XIII, MIPE5.0, CellTiter-Glo, qHTS (AID 1347064);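 as to AC50: cells exposed to compound for 48 hours before the viability read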
Settings: SU-DIPG-XIII viability, CellTiter-Glo ATP luminescence
Records with an inconclusive call do not appear. Active and inactive are the calls of the source. The limit is not given here; nearly all actives have AC50 up to about 23 µM.
Your response should consist of one outcome taken from active, inactive

Could you check what this test reported for CCN(CCO)CCCC(C)Nc1ccnc2cc(Cl)ccc12 (centres undefined) ?
inactive

Now consider `NNCCc1ccccc1` .
inactive

Next: `Oc1c(Cl)cc(Cl)c2cccnc12`
active

Would you kindly repeat that for `COc1ccc([C@@H]2Sc3ccccc3N(CCN(C)C)C(=O)[C@@H]2OC(C)=O)cc1` ?
inactive

// repeat for `CCCc1nc2c(C)cc(-c3nc4ccccc4n3C)cc2n1Cc1ccc(-c2ccccc2C(=O)O)cc1` and report
inactive

Then this compound: `O=C(O)c1cc(=O)c2c(OCC(O)COc3cccc4oc(C(=O)O)cc(=O)c34)cccc2o1`
inactive

// query: `C[C@]12C=CC(=O)C=C1CC[C@@H]1[C@@H]2C(=O)C[C@@]2(C)[C@H]1CC[C@]2(O)C(=O)CO`
inactive

Record: `O=c1[nH]cc(F)c(=O)[nH]1`
inactive

What about this compound? `C[C@@H]1C[C@H]2[C@@H]3CCC4=CC(=O)C=C[C@]4(C)[C@@]3(F)[C@@H](O)C[C@]2(C)[C@@]1(O)C(=O)CO`
inactive

And the next one, `CCC1(c2ccccc2)C(=O)NCNC1=O` ?
inactive

Now give it for `CCC(=O)O[C@]1(C(=O)CCl)[C@@H](C)C[C@H]2[C@@H]3CCC4=CC(=O)C=C[C@]4(C)[C@@]3(F)[C@@H](O)C[C@@]21C` too.
inactive

Please do the same for Cc1cccc(CN2CCN(C(c3ccccc3)c3ccc(Cl)cc3)CC2)c1 (centres undefined) as well.
active

Another compound: `CCCCCN=C(N)N/N=C/c1c[nH]c2ccc(OC)cc12`
active

Continue with `O=C1c2c(O)ccc(O)c2C(=O)c2c(NCCNCCO)ccc(NCCNCCO)c21`
active

Now the compound CC(COc1ccccc1)N(CCCl)Cc1ccccc1 (centres undefined)
inactive

Entry to check: `Cn1cc(/C=C2\C(=O)Nc3cccnc32)c2ccccc21`
active

// query: `C/C=C/C(=O)N(CC)c1ccccc1C`
inactive

Same question for `Oc1ccc(/C=C/c2cc(O)cc(O)c2)cc1` please.
inactive

Also `CCOC(=O)[C@H](CCc1ccccc1)N[C@H]1CCc2ccccc2N(CC(=O)O)C1=O` ?
inactive

###

Test: differential killing of epithelial or mesenchymal cells, primary screen, imaging, PC-3E GFP, TEM4-18 mCherry, co-culture (AID 1345086);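 also: cells exposed to compound for 72 h before imaging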
Details: imaging cell counts, measured here: mesenchymal TEM4-18 mCherry cell survival, at 1 µM
quantity.measured: normalised cell number

Please look up its normalised cell number: `CCC1(c2ccccc2)C(=O)NCNC1=O`
1.05

// query: `CN[C@@H]1[C@H](O)[C@H](NC)[C@H]2O[C@@]3(O)C(=O)C[C@@H](C)O[C@H]3O[C@@H]2[C@H]1O`
1.31

Please answer likewise for `NS(=O)(=O)c1cc2c(cc1Cl)NCNS2(=O)=O`
1.11

Try the compound `Cn1cnc([N+](=O)[O-])c1Sc1ncnc2nc[nH]c12`
1.11

Then `NS(=O)(=O)c1cc2c(cc1C(F)(F)F)NCNS2(=O)=O` ?
1.02

Further, for `CCS(=O)(=O)CCn1c([N+](=O)[O-])cnc1C` ?
1.12

Field entry: OC(CCN1CCCCC1)(c1ccccc1)C1CCCCC1 (centres undefined)
1

Same lookup for `CCCCCN=C(N)N/N=C/c1c[nH]c2ccc(OC)cc12` , please.
1.08

What do you have for `CCN(CC)CCOC(=O)c1ccc(N)cc1` ?
1.03

Quick one: `C=CCCCCCCCCC(=O)O`
0.95

Would you mind doing `CCn1cc(C(=O)O)c(=O)c2cc(F)c(N3CCN(C)CC3)cc21` as well?
1.38

Proceed to `CN(C)C(=O)Oc1ccc[n+](C)c1`
1.53

Ok, now O=C1CCC(N2C(=O)c3ccccc3C2=O)C(=O)N1 (centres undefined)
1.44

What do you have for `Nc1nc(N)c2nc(-c3ccccc3)c(N)nc2n1` ?
1.25

###

Tested on: R275C/Slo1WT/beta2
Assay: modulators of BK channel variants, profiling panel, selectivity assay, cell-based, U2OS BacMam, thallium flux, beta subunits (AID 1259406);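 also: initial slope of Thallos dye fluorescence rise after thallium is added; log ratio against the mean of 0.3% DMSO vehicle wells on the same plate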
Conditions: at 30 µM
Calls of active or inactive are those of the source.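 The calls were made as follows: active = thallium flux through the channel raised or lowered by more than 3 SD from vehicle-only wells, actives on both sides; inactive = the rest.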
quantity.measured: log fold change Tl+ flux

Find the recorded log fold change Tl+ flux belonging to `CCCCCCNC(=O)n1cc(F)c(=O)[nH]c1=O` and report it.
-0.00804 (inactive)

# repeat for `CO[C@@]1(NC(=O)Cc2cccs2)C(=O)N2C(C(=O)O)=C(COC(N)=O)CS[C@@H]21`
0.00869 (inactive)

Queued: Cc1cccc(CN2CCN(C(c3ccccc3)c3ccc(Cl)cc3)CC2)c1 (stereo unspecified)
-0.00698 (inactive)

Continue with `NC12CC3CC(CC(C3)C1)C2`
0.0148 (inactive)

Further, for CC(C)NCC(O)c1ccc(O)c(O)c1 (stereo unspecified) ?
-0.00526 (inactive)

Moving on to the next compound: COc1cc(NC(C)CCCN)c2ncccc2c1 (stereo unspecified)
-0.0635 (inactive)

Same again, this time with `CC1(C)O[C@@H]2C[C@H]3[C@@H]4C[C@H](F)C5=CC(=O)C=C[C@]5(C)[C@H]4[C@@H](O)C[C@]3(C)[C@]2(C(=O)CO)O1`
0.0322 (inactive)

What do you get for `CN(C)CCCN1c2ccccc2CCc2ccc(Cl)cc21` ?
-0.0809 (inactive)

Further, for `Nc1ncn([C@@H]2O[C@H](CO)[C@@H](O)[C@H]2O)c(=O)n1` ?
-0.00199 (inactive)

Now the compound `NNCCc1ccccc1`
0.022 (inactive)

What do you have for `Cc1cccc(Nc2ccncc2S(=O)(=O)NC(=O)NC(C)C)c1` ?
0.0277 (inactive)

###

Assay: decreased DLD-1 cellular survival, CellTiter-Glo luminescent readout, NPC compound collection, primary HTS (AID 1117346)
Conditions: DLD-1 viability, CellTiter-Glo luminescence; at 20 µM (top of the series)
quantity.measured: viability decrease (inhibition) (%)
Expressed in %, but write only the number.

Returns the measured viability decrease (inhibition) for the input compound. Input: `CCCCOC(=O)CCCCCCCCC(=O)OCCCC`
7.6

Please do the same for `CCN(CC)C(=O)[C@]1(c2ccccc2)C[C@H]1CN` as well.
3.4

One more compound: `COC(=O)/C=C\C(=O)OC`
-5.6

Now this one: `CN1CCC(N(Cc2cccs2)c2ccccc2)CC1`
13.1

Another: `C[N+](C)(CCOc1ccccc1)Cc1cccs1`
1.8

Then what about the compound CCCNCC(O)COc1ccccc1C(=O)CCc1ccccc1 (stereo not drawn) ?
10.6

Input O=P(O)(O)OCC(O)CO (stereo not drawn)
18.2

Also, COc1ccccc1OCC1CNC(=O)O1 (stereo not drawn) please.
-2.8

Input `O=C1Cc2cc(Cl)ccc2N1`
2.7

# repeat for CCc1ccc(C(=O)C(C)CN2CCCCC2)cc1 (stereo not drawn)
-0.2

Okay, and `Nc1c(NC/C=C\COc2cc(CN3CCCCC3)ccn2)c(=O)c1=O` ?
-5

Please answer likewise for `C=C(CC)C(=O)c1ccc(OCC(=O)O)c(Cl)c1Cl`
14.8

Also check CC[N+]1(CC)CCC(=C(c2ccccc2)c2ccccc2)C1C (stereo not drawn)
34.6

Same question, `CCN(CC)CCOc1ccccc1C(=O)CCc1ccccc1` this time
23.2

Next record, please: `c1ccc(CCNc2nc(-c3ccccc3)cs2)cc1`
31.5

Repeat for the following compound: `COc1cc(C=C2CCC/C(=C\c3ccc(O)c(OC)c3)C2=O)ccc1O`
101

And for `O=C1NC(=O)C(c2ccccc2)(c2ccccc2)N1` ?
-0.3

Cool, now CC(C)(C)C(=O)OCOC(=O)C1N2C(=O)CC2S(=O)(=O)C1(C)C (stereo not drawn)
4

Request: `CCOC(=O)Oc1ccc(CCNC(=O)[C@H](CCSC)NC(C)=O)cc1OC(=O)OCC`
18.4

Please do the same for `O=C1[C@@H]2[C@H]3CC[C@H](C3)[C@@H]2C(=O)N1CCCCN1CCN(c2ncccn2)CC1` as well.
1.2

Further, for `Cc1ccc2ccc(Cl)cc2n1` ?
-3.7

Repeat for the following compound: `c1ccc2sc(SSc3nc4ccccc4s3)nc2c1`
-20.5

Please answer likewise for `NS(=O)(=O)c1ccc(N2CCCCS2(=O)=O)cc1`
-6.9

Thanks! And `CCCCCC(N)=O` ?
-11.8

Repeat for the following compound: `CC1=NS(=O)(=O)c2cc(Cl)ccc2N1`
1.1

Now this one: `O=C1Nc2cc(Cl)ccc2Oc2ccccc21`
-57.3

// same read-out, input: `CCCCCCCCCCCCCCCCCCNC(=O)OC1CCN(C(=O)OC[C@H](COC(=O)N(Cc2cccc[n+]2CC)C(=O)c2ccccc2OC)OC)CC1`
101

Try C[C@@H](O)[C@H]1C(=O)N2C(C(=O)[O-])=C(SC3Cn4cnc[n+]4C3)[C@H](C)[C@H]12 (stereo partly drawn) next.
5.3

For `CCc1cc(C(N)=S)ccn1` then?
-11

Consider next the compound `Nc1nc2c(ncn2COCCO)c(=O)[nH]1` in the same way.
-16.2

What about `COC1=C(OC)C(=O)C(CC=C(C)CCC=C(C)CCC=C(C)CCC=C(C)CCC=C(C)CCC=C(C)CCC=C(C)CCC=C(C)CCC=C(C)CCC=C(C)C)=C(C)C1=O` ?
1.9

Also need `NCc1ccc(S(N)(=O)=O)cc1` , thanks.
13.8

Also, `Nc1nnnn1-c1ccccc1` please.
-1.05

Same for `CNC(=O)Oc1ccc2c(c1)[C@]1(C)CCN(C)[C@@H]1N2C`
0.2

Entry to check: `NS(=O)(=O)c1cc(C(=O)NN2C[C@H]3[C@H]4CCC(C4)[C@H]3C2)ccc1Cl`
-6.4

Okay, and `Cc1ccc(S(=O)(=O)NC(=O)NC2CCCC2)cc1` ?
9.95

How about this compound: `CO/N=C(/C(=O)N[C@@H]1C(=O)N2C(C(=O)OCOC(=O)C(C)(C)C)=C(C)CS[C@H]12)c1csc(N)n1`
-8.3

Another compound: `CCCCNc1cc(C(=O)O)cc(S(N)(=O)=O)c1Oc1ccccc1`
-4.2

Ok, now Cc1oc(-c2ccccc2)nc1CCC(=O)c1ccc(CC2SC(=O)NC2=O)cc1 (stereo not drawn)
96.5

Then what about the compound `COc1cc(C(=S)N2CCOCC2)cc(OC)c1OC` ?
1.7

Now the compound `O=C1Nc2ccccc2C1(c1ccc(O)cc1)c1ccc(O)cc1`
56.5

Same thing, different compound: `C[C@H](CCC(=O)O)[C@H]1CC[C@H]2[C@H]3[C@@H](CC[C@]12C)[C@@]1(C)CC[C@@H](O)C[C@H]1C[C@@H]3O`
-6.8

Similarly, CC(C[N+](C)(C)C)OC(N)=O (stereo not drawn) ?
-7.3

Also check `CC(C)(C)c1ccc(C(=O)CCCCl)cc1`
0.9

What do you get for `CC(=O)OC[C@H]1O[C@@H](OC(C)=O)[C@H](OC(C)=O)[C@@H]1OC(C)=O` ?
4.4

Then this compound: `CCOC(=O)C(=O)c1csc(NC=O)n1`
7.8

Note, next up: OCC(O)CS (stereo not drawn)
-8.2

How about this compound: `CCNC(=O)NCCCOc1cccc(CN2CCCCC2)c1`
-12.6
